# method.notes: Competition reaction between ligand (Ls), CuCl2 and competing chelator (Lc), UV-visible; affinity constants
# condition.details: Ls/CuCl2/Lc 1/1/1 at 15 μM; solvent per ligand as in Table 3
value.kind: percentage of the CuLs species at equilibrium, competing ligand EDTA (%)

Oc1cccc2ccc(CCCCc3ccc4cccc(O)c4n3)nc12 = 45
CCCCN(c1ccc2cccc(N)c2n1)c1ccc2cccc(N)c2n1 = 30
Oc1cccc2ccc(CCc3ccc4cccc(O)c4n3)nc12 = 55
Oc1c(I)cc(Cl)c2ccc(CCc3ccc4c(Cl)cc(I)c(O)c4n3)nc12 = 60
Oc1ccc(Cl)c2ccc(CCc3ccc4c(Cl)ccc(O)c4n3)nc12 = 40
c1cnc2c(Nc3cccc4cccnc34)cccc2c1 = 55
c1cnc2c(NCCCNc3cccc4cccnc34)cccc2c1 = 25
CC(C)(c1ccc2cccc(O)c2n1)c1ccc2cccc(O)c2n1 = 50
Oc1cccc2ccc(C(F)(F)c3ccc4cccc(O)c4n3)nc12 = 45
O=C(c1ccc2cccc(O)c2n1)c1ccc2cccc(O)c2n1 [Compound 6, Bis(8-hydroxy-2-quinoline)methanone] = 75
COc1ccc2ccc(CCc3ccc4ccc(OC)c(O)c4n3)nc2c1O = 55
CC(C)(c1ccc2c(Cl)ccc(O)c2n1)c1ccc2c(Cl)ccc(O)c2n1 = 40

* * *

The following compounds are shown together with reported CuCl2 % soluble Aβ values.
# measurement.target: Aβ1-42 (Homo sapiens)
# Construct: The β-amyloid peptide Aβ1-42 (Aβ1-42) was synthesised, purified (to a purity greater than 95%); made in house; host or cells: chemical peptide synthesis (no expression host)
# Sequence (P05067 672-713): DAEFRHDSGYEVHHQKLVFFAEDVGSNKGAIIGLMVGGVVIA
# method.notes: Inhibition of the precipitation of Aβ1-42 by the addition of ligand (Micro BCA assay of soluble/aggregated peptide)
# Assay type: biochemical
# condition.details: Aβ1-42 5 μM, 20 μM CuCl2, 1 h 37° C. then 1 h with 200 μM ligand, pH 7.4
value.kind: CuCl2 % soluble Aβ (%)

Oc1cccc2cccnc12 [8-hydroxyquinoline, reference compound] = 70
Oc1cccc2ccc(C(F)(F)c3ccc4cccc(O)c4n3)nc12 = 51
CCCCN(c1ccc2cccc(N)c2n1)c1ccc2cccc(N)c2n1 = 60
O=C(c1ccc2cccc(O)c2n1)c1ccc2cccc(O)c2n1 [Compound 6, Bis(8-hydroxy-2-quinoline)methanone] = 58
Oc1cccc2ccc(Cc3ccc4cccc(O)c4n3)nc12 [Compound 1, 2,2′-methanediyl-bis(8-hydroxyquinoline)] = 60
Oc1c(I)cc(Cl)c2ccc(CCc3ccc4c(Cl)cc(I)c(O)c4n3)nc12 = 19
Oc1ccc(Cl)c2ccc(CCc3ccc4c(Cl)ccc(O)c4n3)nc12 = 36
Oc1c(I)cc(Cl)c2cccnc12 [Clioquinol, reference compound] = 55
c1cnc2c(Nc3cccc4cccnc34)cccc2c1 = 69
O=C(Nc1cccc2cccnc12)c1cccc2cccnc12 [Compound 24, N-8-quinolinyl-8-quinoline carboxamide] = 21
COc1ccc2ccc(CCc3ccc4ccc(OC)c(O)c4n3)nc2c1O = 38
COc1ccc2ccc(Cc3ccc4ccc(OC)c(O)c4n3)nc2c1O.Cl.Cl = 48
c1cnc2c(Oc3cccc4cccnc34)cccc2c1 = 35
Oc1cccc2ccc(CCCCc3ccc4cccc(O)c4n3)nc12 = 42
Cc1ccc2cccc(O)c2n1 [8-hydroxyquinaldine, reference compound] = 52
CC(C)(c1ccc2c(Cl)ccc(O)c2n1)c1ccc2c(Cl)ccc(O)c2n1 = 30
Oc1cccc2ccc(CC(Cc3ccc4cccc(O)c4n3)c3ccc4cccc(O)c4n3)nc12 = 48

src = patent US20120277265A1
